Field: activation at 16 µM. Provide a value for each of the compounds that follow.
Biological target: Nrf2-Keap1 complex (Homo sapiens, UniProt Q14145)
Sequence (Q14145 whole entry, one chain of several): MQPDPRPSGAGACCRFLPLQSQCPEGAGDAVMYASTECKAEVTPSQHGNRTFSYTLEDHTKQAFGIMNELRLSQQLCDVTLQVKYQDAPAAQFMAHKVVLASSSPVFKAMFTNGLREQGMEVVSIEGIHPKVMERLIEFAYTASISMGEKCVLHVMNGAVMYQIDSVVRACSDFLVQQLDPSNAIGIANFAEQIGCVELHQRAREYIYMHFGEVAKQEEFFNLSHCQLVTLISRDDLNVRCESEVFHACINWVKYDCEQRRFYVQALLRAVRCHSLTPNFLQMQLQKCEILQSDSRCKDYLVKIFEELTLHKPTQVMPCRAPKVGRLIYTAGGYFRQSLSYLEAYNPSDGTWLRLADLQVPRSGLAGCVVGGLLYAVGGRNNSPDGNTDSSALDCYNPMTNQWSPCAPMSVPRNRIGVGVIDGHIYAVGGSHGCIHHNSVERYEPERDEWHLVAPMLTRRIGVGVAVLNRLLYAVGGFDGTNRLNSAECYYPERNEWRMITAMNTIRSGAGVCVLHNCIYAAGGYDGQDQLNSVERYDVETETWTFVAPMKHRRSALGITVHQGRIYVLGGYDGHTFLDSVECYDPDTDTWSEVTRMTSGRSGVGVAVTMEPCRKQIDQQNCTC
Experiment: cell-based
Type: cell-based
Conditions: 3 h, read-out: Activation 100 nL
// return numeric value only (unit: %, not printed)

Name the recorded activation at 16 µM for O=CC=Cc1ccc(O)cc1 [p-HYDROXYCINNAMALDEHYDE] .
63

Name the recorded activation at 16 µM for COC1=CC(=O)C[C@@H](C)[C@]12Oc1c(Cl)c(OC)cc(OC)c1C2=O [GRISEOFULVIN, reference compound] .
41

Name the recorded activation at 16 µM for CN1CCN(CC/C=C2/c3ccccc3Sc3ccc(S(=O)(=O)N(C)C)cc32)CC1 [THIOTHIXENE, reference compound] .
55

Name the recorded activation at 16 µM for "COC1=CC(=O)C(C(=O)c2ccccc2)=CC1=O" .
72

Name the recorded activation at 16 µM for "COc1ccc2c(c1)[C@@]1(C)CCC(=O)C[C@H]1CC2" .
46

Name the recorded activation at 16 µM for CC1CCC(NC(=O)N(CCCl)N=O)CC1 (centres unmarked) [SEMUSTINE, reference compound] .
39

Name the recorded activation at 16 µM for "CC(=O)Oc1ccc(Cl)c2cccnc12" .
60

Name the recorded activation at 16 µM for COC(=O)C1=C(C)NC(C)=C(C(=O)OC)C1c1ccccc1[N+](=O)[O-] [NIFEDIPINE, reference compound] .
35
